- System: MJ412.W0M.ENV.B1
- Type: cell-based, HIV-1
- REPORTED CONDITIONS: subtype C; triplicate, repeated twice, mean ± SD; read-out: IC50 (nM) against MJ412.W0M.ENV.B1
Ends that are not written are not given here.

>  <MACROMOLECULE SEQUENCE>
WEEWDKKIEEYTKKIEELIKKSQNQQIDL [CP-IDL]

>  <TARGET DESC>
MJ412.W0M.ENV.B1

>  <IC50>
2.24 nM

$$$$
>  <MACROMOLECULE SEQUENCE>
WEEWDKKIEEYTKKIEELIKKSQNQQ [CP]

>  <TARGET DESC>
MJ412.W0M.ENV.B1

>  <IC50>
46 nM

$$$$
